Every entry's value here was drawn from paper PMC3530961.

ASSAY INFO: plasma protein binding by equilibrium dialysis
Format: in vitro ADME, mouse
EXPERIMENTAL CONTEXT: female CD1 mouse plasma, equilibrium dialysis 5 h, 37 °C
PROPERTY LABEL: plasma protein binding (% bound)

Examples from the recorded data:
Cc1cn([C@@H]2C[C@H](O)[C@@H](CNC(=O)Nc3ccc(OCc4ccccc4Cl)cc3)O2)c(=O)[nH]c1=O [Compound 84]	94.1
Cc1cn([C@@H]2C[C@H](O)[C@@H](CNC(=O)Nc3ccc(Oc4ccccc4)cc3)O2)c(=O)[nH]c1=O [Compound 66]	90.5
Cc1cn([C@@H]2C[C@H](O)[C@@H](CNC(=O)Nc3ccc(OCc4ccccc4)cc3)O2)c(=O)[nH]c1=O [Compound 60]	81.2

a = Cc1cn([C@@H]2C[C@H](O)[C@@H](CNC(=O)Nc3ccc(-c4ccccc4)cc3)O2)c(=O)[nH]c1=O [Compound 57]
b = Cc1cn([C@@H]2C[C@H](O)[C@@H](CNC(=O)Nc3ccc(N4CCCCC4)cc3)O2)c(=O)[nH]c1=O [Compound 63]
// which entry has the larger plasma protein binding (% bound) value, a or b ? Lab log: write the label of the selected item as the result.
a
